experiment: in vitro; conditions: human, hela cells, % viability
Property: viability at 28.5 h, 10 µM; scope: individual compounds
Measured property: viability at 28.5 h, 10 µM (%)

1) Cc1ccc(S(=O)(=O)N[C@H]2CO[C@H]3[C@@H]2OC[C@H]3O)cc1 :: 98.4
2) C(=N\c1ccc(Cc2ccc(/N=C/c3ccc[nH]3)cc2)cc1)/c1ccc[nH]1 :: 101
3) O=[N+]([O-])c1nn(-c2ccc(Cl)cc2)[n+]([O-])c1NCc1ccccn1 :: 96.6
4) Cc1nc(C2CCN(Cc3ccccc3)C2)c2ccccn12 (stereo not drawn) :: 88.1
5) O=C1OCc2ccc3c(c21)COCO3 :: 107
6) O=S(=O)(Nc1cc(F)cc(F)c1F)c1cc(OC2CCNCC2)c2occc2c1 [CBK082814C] :: 83.9
7) CC(NC(=O)CCCC(=O)c1cccs1)c1cccc2ccccc12 (stereo not drawn) :: 105
8) CCOC(=O)c1sc(-c2ccc3c(c2)OCO3)nc1O :: 97.2
9) Cc1cc2c(o1)c1cnn(CC(=O)N3CCCC(C)C3)c(=O)c1n2C (stereo not drawn) :: 85
